- ASSAY: Toxicity liver stage against HepG2, at 10uM
- Format: cell-based
- Parameters: test concentration 10 uM, cell line HepG2-A16-CD81EGFP
- CONDITION_SUMMARY: human, HepG2-A16-CD81EGFP cells; read-out: INHIBITION

>  <MOLECULE>
NCC1[C@H]2CN(Cc3ccccc3F)C[C@@H]12 (stereo partly drawn)

>  <cytotoxicity at 10 µM>
-7.52%

$$$$
>  <MOLECULE>
Cc1nc(C)c(C)c(N2CCC(O)(c3ccc(F)cc3)CC2)n1

>  <cytotoxicity at 10 µM>
-6.08%

$$$$
>  <MOLECULE>
CN1[C@@H](CCC(=O)NCc2ccc(F)cc2)CNC(=O)[C@H]2NCC[C@H]21

>  <cytotoxicity at 10 µM>
7.6%

$$$$
>  <MOLECULE>
CC(=O)N1CCn2c(-c3cccc(F)c3)cnc2C12CCNCC2

>  <cytotoxicity at 10 µM>
4.98%

$$$$
>  <MOLECULE>
O=C(COc1cccnc1)N1CCCC(n2cccn2)C1 (stereo not drawn)

>  <cytotoxicity at 10 µM>
-1.92%

$$$$
>  <MOLECULE>
Cn1cccc1C(=O)N[C@H]1CN(Cc2ccoc2)[C@@H]2CCCO[C@H]12

>  <cytotoxicity at 10 µM>
-88.7%

$$$$
>  <MOLECULE>
CC(C)c1cnc(CN(C)C2CCN(CCc3ccncc3)C2)o1 (stereo not drawn)

>  <cytotoxicity at 10 µM>
-0.296%

$$$$
>  <MOLECULE>
Cc1ccc(N2CC[C@H]3C[C@H](C(=O)NCc4ccco4)O[C@@H]3C2)cc1

>  <cytotoxicity at 10 µM>
8.8%

$$$$
>  <MOLECULE>
Nc1cc(C(=O)NCC2CCN(Cc3cccc(O)c3)C2)ccn1 (stereo not drawn)

>  <cytotoxicity at 10 µM>
-8.69%

$$$$
>  <MOLECULE>
CN1CCOC[C@H]1c1nc(-c2ccccc2)c[nH]1

>  <cytotoxicity at 10 µM>
-7.24%

$$$$
>  <MOLECULE>
Cc1cccc(CN2CC[C@@H]3[C@@H]2CCN3C(=O)c2cnoc2C)n1

>  <cytotoxicity at 10 µM>
-21.1%

$$$$
>  <MOLECULE>
CN(Cc1ccco1)C(=O)Nc1cc(C(F)(F)F)c[nH]c1=O

>  <cytotoxicity at 10 µM>
2.79%

$$$$
>  <MOLECULE>
Cc1ccc(OCCC(=O)N2CCC(c3nncn3C)CC2)c(C)c1

>  <cytotoxicity at 10 µM>
-6.27%

$$$$
>  <MOLECULE>
C[S+]([O-])c1nncn1CC(=O)c1cccc(Br)c1 (stereo not drawn)

>  <cytotoxicity at 10 µM>
1.08%

$$$$
>  <MOLECULE>
Cc1cc(C)nc(N2CCC(NCCSc3nnnn3C)CC2)n1

>  <cytotoxicity at 10 µM>
-6.88%

$$$$
>  <MOLECULE>
C1CC(CO[C@@H]2CC[C@H]3[C@H]2OCCN3CC2CC2)CCO1

>  <cytotoxicity at 10 µM>
11.4%

$$$$
>  <MOLECULE>
CCn1nc(C(=O)N2CCNCC2C(=O)Nc2ccc(C)nc2)cc1C (stereo not drawn)

>  <cytotoxicity at 10 µM>
10.2%

$$$$
>  <MOLECULE>
CC(=O)N1CCOC2(CCCN(Cc3ccc(Cl)c(C(F)(F)F)c3)C2)C1 (stereo not drawn)

>  <cytotoxicity at 10 µM>
3.68%

$$$$
>  <MOLECULE>
CC(C)CCNC(=O)c1ccc(-c2ccco2)[nH]c1=O

>  <cytotoxicity at 10 µM>
-9.62%

$$$$
>  <MOLECULE>
COCc1nn(C(C)C)c2c1CCN(Cc1ccccn1)C2

>  <cytotoxicity at 10 µM>
8.04%

$$$$
>  <MOLECULE>
CN(CC(N)=O)S(=O)(=O)c1ccc(F)cc1F

>  <cytotoxicity at 10 µM>
4.26%

$$$$
>  <MOLECULE>
CCCN(CCC)C(=O)CN(C)Cc1cnc(C)s1

>  <cytotoxicity at 10 µM>
20.9%

$$$$
>  <MOLECULE>
Cc1ocnc1C(=O)N1CCN(CCOc2ccccc2)CC1

>  <cytotoxicity at 10 µM>
1.12%

$$$$

* * *

- ASSAY: Toxicity liver stage against HepG2, at 10uM
- Format: cell-based
- Design: test concentration 10 uM, cell line HepG2-A16-CD81EGFP
- CONDITION_SUMMARY: human, HepG2-A16-CD81EGFP cells; read-out: INHIBITION

>  <MOLECULE>
Cc1nc(C)n(C2CCCN(C(=O)c3ccc4[nH]nnc4c3)C2)n1 (configuration not stated)

>  <ENDPOINT_UNIT>
%

>  <cytotoxicity at 10 µM>
-13.9

$$$$
>  <MOLECULE>
CC(=O)N1CCN(C(=O)C(C)n2cncn2)CC1 (configuration not stated)

>  <ENDPOINT_UNIT>
%

>  <cytotoxicity at 10 µM>
1.64

$$$$
>  <MOLECULE>
CC(C)NC(=O)CCNC(=O)Nc1cnn(-c2ccccc2F)c1

>  <ENDPOINT_UNIT>
%

>  <cytotoxicity at 10 µM>
1.21

$$$$
>  <MOLECULE>
CCOc1cccc(C(=O)N2C[C@@H]3CC[C@H]2CN(C(=O)C2CCC2)C3)c1

>  <ENDPOINT_UNIT>
%

>  <cytotoxicity at 10 µM>
5.73

$$$$
>  <MOLECULE>
O=C(NC1CCCc2c1[nH]c1ccc(F)cc21)c1n[nH]c2c1CCCC2 (configuration not stated)

>  <ENDPOINT_UNIT>
%

>  <cytotoxicity at 10 µM>
46.4

$$$$
>  <MOLECULE>
Cc1noc(-c2ccnc(Oc3ccc(CN4CCCC4)cc3F)c2)n1

>  <ENDPOINT_UNIT>
%

>  <cytotoxicity at 10 µM>
15.7

$$$$
>  <MOLECULE>
COCC(O)CNc1cncc(Br)c1 (configuration not stated)

>  <ENDPOINT_UNIT>
%

>  <cytotoxicity at 10 µM>
-2.52

$$$$
>  <MOLECULE>
COC(=O)CC1CN(Cc2ccn(-c3ccc(F)cc3)n2)CCO1 (configuration not stated)

>  <ENDPOINT_UNIT>
%

>  <cytotoxicity at 10 µM>
-7.83

$$$$
>  <MOLECULE>
Cc1ccc(C(=O)N2CCc3ncc(Cn4cccn4)n3CC2)cn1

>  <ENDPOINT_UNIT>
%

>  <cytotoxicity at 10 µM>
7.25

$$$$
>  <MOLECULE>
CC1(Cc2ccc(F)cc2)Cc2cc(C(=O)NCCO)ccc2O1 (configuration not stated)

>  <ENDPOINT_UNIT>
%

>  <cytotoxicity at 10 µM>
-2.89

$$$$
>  <MOLECULE>
NC(=O)CCNC(=O)NCC1(c2ccccc2Cl)CCC1

>  <ENDPOINT_UNIT>
%

>  <cytotoxicity at 10 µM>
-53.1

$$$$
>  <MOLECULE>
CCn1c(C)nnc1SCCNc1cc(OC)ncn1

>  <ENDPOINT_UNIT>
%

>  <cytotoxicity at 10 µM>
5.87

$$$$
